target: Mitogen-activated protein kinase 9 (Homo sapiens, UniProt P45984); assay: Inhibition of human JNK2
Sequence (P45984 whole entry): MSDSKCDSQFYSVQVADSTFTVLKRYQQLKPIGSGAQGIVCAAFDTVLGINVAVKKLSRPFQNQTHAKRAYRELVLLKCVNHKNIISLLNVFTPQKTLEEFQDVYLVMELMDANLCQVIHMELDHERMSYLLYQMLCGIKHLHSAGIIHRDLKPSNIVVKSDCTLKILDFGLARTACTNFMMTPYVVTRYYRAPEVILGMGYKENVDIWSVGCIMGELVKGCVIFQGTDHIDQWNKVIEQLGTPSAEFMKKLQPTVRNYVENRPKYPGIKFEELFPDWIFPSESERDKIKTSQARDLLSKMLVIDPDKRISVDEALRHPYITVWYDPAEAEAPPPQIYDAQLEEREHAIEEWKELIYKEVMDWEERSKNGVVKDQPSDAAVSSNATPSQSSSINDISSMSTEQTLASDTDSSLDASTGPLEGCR
Experimental Readout: pIC50
pIC50 here: minus log base 10 of the concentration, concentration in moles per litre.

Provide only the value of recorded pIC50 for "O=C(NCc1ccc(S(=O)(=O)N2CCC(n3nnc4ccccc43)CC2)s1)c1ccc(Cl)cc1" 6.19
